procedure.summary: D90 particle size of atovaquone by Malvern Mastersizer
Format: physicochemical
conditions.used: Run 4, stir time 1 min
Experimental: The particle size of atovaquone was determined by a Malvern Mastersizer as 30 mg in 900 mL of purified water with 3 drops of polysorbate 80, 10 minutes of sonication and a stirrer speed of 400 rpm. […]
quantity.kind: D90 particle size
In your response, the unit should come after the numeric value.

Worked set:
- molecule: "O=C1C(O)=C([C@H]2CC[C@H](c3ccc(Cl)cc3)CC2)C(=O)c2ccccc21 [Example 4]"
  D90 particle size: "4.814 microns"
- molecule: "O=C1C(O)=C([C@H]2CC[C@H](c3ccc(Cl)cc3)CC2)C(=O)c2ccccc21 [Example 2]"
  D90 particle size: "6.572 microns"
- molecule: "O=C1C(O)=C([C@H]2CC[C@H](c3ccc(Cl)cc3)CC2)C(=O)c2ccccc21 [Example 3]"
  D90 particle size: "4.285 microns"

Task: Would you kindly share the measured D90 particle size for O=C1C(O)=C([C@H]2CC[C@H](c3ccc(Cl)cc3)CC2)C(=O)c2ccccc21 [Example 1] ?
Output: 5.283 microns

---

procedure.summary: D90 particle size of atovaquone by Malvern Mastersizer
Format: physicochemical
conditions.used: Run 2, stir time 5 min
Method: The particle size of atovaquone was determined by a Malvern Mastersizer as 30 mg in 900 mL of purified water with 3 drops of polysorbate 80, 10 minutes of sonication and a stirrer speed of 400 rpm. […]
quantity.kind: D90 particle size (microns)
Give just the numeric value; microns need not be written.

Worked examples follow.
- compound: "O=C1C(O)=C([C@H]2CC[C@H](c3ccc(Cl)cc3)CC2)C(=O)c2ccccc21 [Example 2]"
  readout.unit: "microns"
  D90 particle size: 6.259
- compound: "O=C1C(O)=C([C@H]2CC[C@H](c3ccc(Cl)cc3)CC2)C(=O)c2ccccc21 [Example 4]"
  readout.unit: "microns"
  D90 particle size: 4.630
- compound: "O=C1C(O)=C([C@H]2CC[C@H](c3ccc(Cl)cc3)CC2)C(=O)c2ccccc21 [Example 1]"
  readout.unit: "microns"
  D90 particle size: 5.184
- compound: "O=C1C(O)=C([C@H]2CC[C@H](c3ccc(Cl)cc3)CC2)C(=O)c2ccccc21 [Example 5]"
  readout.unit: "microns"
  D90 particle size: 7.723

Task: Dear colleague, I am looking for the recorded D90 particle size of the following compound: O=C1C(O)=C([C@H]2CC[C@H](c3ccc(Cl)cc3)CC2)C(=O)c2ccccc21 [Example 3]
Output: 4.260

---

procedure.summary: D90 particle size of atovaquone by Malvern Mastersizer
Type: physicochemical
conditions.used: Run 3, stir time 1 min
quantity.kind: D90 particle size (microns)
Dear colleague, please return just the value in microns, with no unit written.

Example entries and their recorded answers appear below.
- compound: "O=C1C(O)=C([C@H]2CC[C@H](c3ccc(Cl)cc3)CC2)C(=O)c2ccccc21 [Example 5]"
  readout.number: 7.978
- compound: "O=C1C(O)=C([C@H]2CC[C@H](c3ccc(Cl)cc3)CC2)C(=O)c2ccccc21 [Example 2]"
  readout.number: 6.338

Task: Tell me the measured D90 particle size of O=C1C(O)=C([C@H]2CC[C@H](c3ccc(Cl)cc3)CC2)C(=O)c2ccccc21 [Example 1] , please.
Output: 5.049

Task: Lookup O=C1C(O)=C([C@H]2CC[C@H](c3ccc(Cl)cc3)CC2)C(=O)c2ccccc21 [Example 3]
Output: 4.124

Task: Same thing, different compound: O=C1C(O)=C([C@H]2CC[C@H](c3ccc(Cl)cc3)CC2)C(=O)c2ccccc21 [Example 4]
Output: 4.836

---

procedure.summary: D90 particle size of atovaquone by Malvern Mastersizer
Assay type: physicochemical
conditions.used: Run 4, stir time 2 min
quantity.kind: D90 particle size (microns)
Report only the number, with the unit microns understood.

- compound: "O=C1C(O)=C([C@H]2CC[C@H](c3ccc(Cl)cc3)CC2)C(=O)c2ccccc21 [Example 3]"
  readout.unit: "microns"
  D90 particle size: 4.285
- compound: "O=C1C(O)=C([C@H]2CC[C@H](c3ccc(Cl)cc3)CC2)C(=O)c2ccccc21 [Example 1]"
  readout.unit: "microns"
  D90 particle size: 5.282
- compound: "O=C1C(O)=C([C@H]2CC[C@H](c3ccc(Cl)cc3)CC2)C(=O)c2ccccc21 [Example 2]"
  readout.unit: "microns"
  D90 particle size: 6.572

Proceed to the following item.
Task: Recorded D90 particle size of O=C1C(O)=C([C@H]2CC[C@H](c3ccc(Cl)cc3)CC2)C(=O)c2ccccc21 [Example 4] , please.
Output: 4.814

---

procedure.summary: D90 particle size of atovaquone by Malvern Mastersizer
Assay type: physicochemical
conditions.used: Run 4, stir time 3 min
Quick reference for D90 particle size among some molecules
Report the figure in microns without appending any unit label.

- molecule: "O=C1C(O)=C([C@H]2CC[C@H](c3ccc(Cl)cc3)CC2)C(=O)c2ccccc21 [Example 3]"
  readout.number: 4.286
- molecule: "O=C1C(O)=C([C@H]2CC[C@H](c3ccc(Cl)cc3)CC2)C(=O)c2ccccc21 [Example 4]"
  readout.number: 4.815
- molecule: "O=C1C(O)=C([C@H]2CC[C@H](c3ccc(Cl)cc3)CC2)C(=O)c2ccccc21 [Example 1]"
  readout.number: 5.283

Next molecule, D90 particle size to be filled in.
Task: Requested read-out: D90 particle size. Entry: O=C1C(O)=C([C@H]2CC[C@H](c3ccc(Cl)cc3)CC2)C(=O)c2ccccc21 [Example 2]
Output: 6.572

---

procedure.summary: D90 particle size of atovaquone by Malvern Mastersizer
Type: physicochemical
conditions.used: Run 2, stir time 4 min
# Lookup of reported D90 particle size keyed by entry
Write the value in microns as a bare number.

Check out these entries, answers already filled in.
- molecule: "O=C1C(O)=C([C@H]2CC[C@H](c3ccc(Cl)cc3)CC2)C(=O)c2ccccc21 [Example 5]"
  D90 particle size [microns]: 7.727
- molecule: "O=C1C(O)=C([C@H]2CC[C@H](c3ccc(Cl)cc3)CC2)C(=O)c2ccccc21 [Example 3]"
  D90 particle size [microns]: 4.261
- molecule: "O=C1C(O)=C([C@H]2CC[C@H](c3ccc(Cl)cc3)CC2)C(=O)c2ccccc21 [Example 2]"
  D90 particle size [microns]: 6.260
- molecule: "O=C1C(O)=C([C@H]2CC[C@H](c3ccc(Cl)cc3)CC2)C(=O)c2ccccc21 [Example 1]"
  D90 particle size [microns]: 5.183

Let us examine a further case.
Task: // query D90 particle size value for entry O=C1C(O)=C([C@H]2CC[C@H](c3ccc(Cl)cc3)CC2)C(=O)c2ccccc21 [Example 4]
Output: 4.631

---

Known D90 particle size of a selection of molecules
procedure.summary: D90 particle size of atovaquone by Malvern Mastersizer
Format: physicochemical
conditions.used: Run 2, stir time 3 min
Numeric answer only, unit microns assumed.

# example entries with known answers
- molecule: "O=C1C(O)=C([C@H]2CC[C@H](c3ccc(Cl)cc3)CC2)C(=O)c2ccccc21 [Example 5]"
  D90 particle size, microns: 7.726
- molecule: "O=C1C(O)=C([C@H]2CC[C@H](c3ccc(Cl)cc3)CC2)C(=O)c2ccccc21 [Example 4]"
  D90 particle size, microns: 4.629
- molecule: "O=C1C(O)=C([C@H]2CC[C@H](c3ccc(Cl)cc3)CC2)C(=O)c2ccccc21 [Example 1]"
  D90 particle size, microns: 5.182

Task: I would be grateful if you could share the reported D90 particle size for O=C1C(O)=C([C@H]2CC[C@H](c3ccc(Cl)cc3)CC2)C(=O)c2ccccc21 [Example 3] .
Output: 4.261

Task: Quick one: O=C1C(O)=C([C@H]2CC[C@H](c3ccc(Cl)cc3)CC2)C(=O)c2ccccc21 [Example 2]
Output: 6.258

---

procedure.summary: D90 particle size of atovaquone by Malvern Mastersizer
Format: physicochemical
conditions.used: Run 1, stir time 5 min
quantity.kind: D90 particle size
Note to self: number, then unit, no commentary.

Observe how each entry below is paired with its result.
- compound: "O=C1C(O)=C([C@H]2CC[C@H](c3ccc(Cl)cc3)CC2)C(=O)c2ccccc21 [Example 1]"
  quantity.kind: "D90 particle size"
  result: "5.088 microns"
- compound: "O=C1C(O)=C([C@H]2CC[C@H](c3ccc(Cl)cc3)CC2)C(=O)c2ccccc21 [Example 2]"
  quantity.kind: "D90 particle size"
  result: "6.176 microns"
- compound: "O=C1C(O)=C([C@H]2CC[C@H](c3ccc(Cl)cc3)CC2)C(=O)c2ccccc21 [Example 5]"
  quantity.kind: "D90 particle size"
  result: "7.948 microns"
- compound: "O=C1C(O)=C([C@H]2CC[C@H](c3ccc(Cl)cc3)CC2)C(=O)c2ccccc21 [Example 4]"
  quantity.kind: "D90 particle size"
  result: "4.651 microns"

API: the following record is the query input.
Task: Requested read-out: D90 particle size. Entry: O=C1C(O)=C([C@H]2CC[C@H](c3ccc(Cl)cc3)CC2)C(=O)c2ccccc21 [Example 3]
Output: 4.280 microns
